# ASSAY_INFO: Biodistribution of ^111In-labeled peptides in B16-F1 melanoma-bearing mice
# Type: in vivo, mouse (B6D2F1)
# COND: female, B6D2F1 (C57BL/6 × DBA/2F1 hybrids), mouse, muscle, iv, total radioactivity; ^111In-labeled peptide, 185 kBq i.v., 48 h; mean ± SEM of three experiments, n = 5 animals each; read-out: Muscle uptake
Non-standard residues stand in square brackets, D forms with d. Residues, ends and D or L forms follow the SMILES beside them. *: point of attachment. DOTA = O=C(O)CN1CCN(CC(=O)O)CCN(CC(=O)*)CCN(CC(=O)O)CC1; pY = N[C@@H](Cc1ccc(OP(=O)(O)O)cc1)C(=O)O; Nle = CCCC[C@H](N)C(=O)O
Each entry below lists one item and its recorded tissue uptake at 48 h value.
MEASUREMENT_TYPE: tissue uptake at 48 h (%ID/g)

>>> obs_value("CCCC[C@H](NC(C)=O)C(=O)N[C@@H](CC(=O)O)C(=O)N[C@@H](Cc1c[nH]cn1)C(=O)N[C@H](Cc1ccccc1)C(=O)N[C@@H](CCCNC(=N)N)C(=O)N[C@@H](Cc1c[nH]c2ccccc12)C(=O)NCC(=O)N[C@@H](CCCCNC(=O)CN1CCN(CC(=O)O)CCN(CC(=O)O)CCN(CC(=O)O)CC1)C(N)=O [DOTA-NAP-amide, reference compound]")
0.01
>>> obs_value("CCCC[C@H](NC(=O)[C@H](Cc1ccc(OP(=O)(O)O)cc1)NC(=O)CNC(=O)CN1CCN(CC(=O)O)CCN(CC(=O)O)CCN(CC(=O)O)CC1)C(=O)N[C@@H](CC(=O)O)C(=O)N[C@@H](Cc1c[nH]cn1)C(=O)N[C@H](Cc1ccccc1)C(=O)N[C@@H](CCCNC(=N)N)C(=O)N[C@@H](Cc1c[nH]c2ccccc12)C(N)=O [DOTA-Phospho-MSH2-9] ({DOTA}-G[pY][Nle]DH[dF]RW-NH2)")
0.02
>>> obs_value("CCCC[C@H](NC(C)=O)C(=O)N[C@@H](CC(=O)O)C(=O)N[C@@H](Cc1c[nH]cn1)C(=O)N[C@H](Cc1ccccc1)C(=O)N[C@@H](CCCNC(=N)N)C(=O)N[C@@H](Cc1c[nH]c2ccccc12)C(=O)NCC(=O)N[C@@H](CCCCNC(=O)CN1CCN(CC(=O)O)CCN(CC(=O)O)CCN(CC(=O)O)CC1)C(=O)N[C@H](CC(=O)O)C(=O)N[C@H](CC(=O)O)C(=O)O [DOTA-NAP-D-Asp-D-Asp] (Ac-[Nle]DH[dF]RWGK(DOTA)[dD][dD]-OH)")
0.03

----------
# ASSAY_INFO: Biodistribution of ^111In-labeled peptides in B16-F1 melanoma-bearing mice
# Assay type: in vivo, mouse (B6D2F1)
# COND: female, B6D2F1, mouse, bone, iv, total radioactivity; ^111In-labeled peptide, 185 kBq i.v., 24 h; mean ± SEM of three experiments, n = 5 animals each; read-out: Bone uptake
Non-standard residues stand in square brackets, D forms with d. Residues, ends and D or L forms follow the SMILES beside them. *: point of attachment. DOTA = O=C(O)CN1CCN(CC(=O)O)CCN(CC(=O)*)CCN(CC(=O)O)CC1; pY = N[C@@H](Cc1ccc(OP(=O)(O)O)cc1)C(=O)O; Nle = CCCC[C@H](N)C(=O)O
MEASUREMENT_TYPE: tissue uptake at 24 h (%ID/g)

>>> obs_value("CCCC[C@H](NC(C)=O)C(=O)N[C@@H](CC(=O)O)C(=O)N[C@@H](Cc1c[nH]cn1)C(=O)N[C@H](Cc1ccccc1)C(=O)N[C@@H](CCCNC(=N)N)C(=O)N[C@@H](Cc1c[nH]c2ccccc12)C(=O)NCC(=O)N[C@@H](CCCCNC(=O)CN1CCN(CC(=O)O)CCN(CC(=O)O)CCN(CC(=O)O)CC1)C(=O)N[C@H](CC(=O)O)C(=O)N[C@H](CC(=O)O)C(=O)O [DOTA-NAP-D-Asp-D-Asp] (Ac-[Nle]DH[dF]RWGK(DOTA)[dD][dD]-OH)")
0.06
>>> obs_value("CCCC[C@H](NC(=O)[C@H](Cc1ccc(OP(=O)(O)O)cc1)NC(=O)CNC(=O)CN1CCN(CC(=O)O)CCN(CC(=O)O)CCN(CC(=O)O)CC1)C(=O)N[C@@H](CC(=O)O)C(=O)N[C@@H](Cc1c[nH]cn1)C(=O)N[C@H](Cc1ccccc1)C(=O)N[C@@H](CCCNC(=N)N)C(=O)N[C@@H](Cc1c[nH]c2ccccc12)C(N)=O [DOTA-Phospho-MSH2-9] ({DOTA}-G[pY][Nle]DH[dF]RW-NH2)")
0.11
>>> obs_value("CCCC[C@H](NC(C)=O)C(=O)N[C@@H](CC(=O)O)C(=O)N[C@@H](Cc1c[nH]cn1)C(=O)N[C@H](Cc1ccccc1)C(=O)N[C@@H](CCCNC(=N)N)C(=O)N[C@@H](Cc1c[nH]c2ccccc12)C(=O)NCC(=O)N[C@@H](CCCCNC(=O)CN1CCN(CC(=O)O)CCN(CC(=O)O)CCN(CC(=O)O)CC1)C(N)=O [DOTA-NAP-amide, reference compound]")
0.14
